Test system: M109
Experiment: Cytotoxicity against mouse M109 cells
Format: functional, cell-based
Entries and their IC50 values follow.
Supply the numeric figure in µg/mL, leaving out any unit text.

Below, each entry is followed by its recorded IC50 result.
smiles	IC50, µg/mL
C[C@H](C1=NC[C@](C)(O)CC1)[C@H]1CC[C@H]2[C@@H]3CC=C4C[C@@H](O)CC[C@]4(C)[C@H]3CC[C@]12C	31.2
C[C@H]1CCC([C@@H](C)[C@H]2CC[C@H]3[C@@H]4CC=C5C[C@@H](O)CC[C@]5(C)[C@H]4CC[C@]23C)=NC1	12.5

Name the reported IC50 value associated with the compound `C[C@H]1CCC([C@@H](C)[C@H]2CC[C@H]3[C@@H]4CC=C5[C@@H](O)[C@@H](O)CC[C@]5(C)[C@H]4CC[C@]23C)=NC1` 15.5

Name the reported IC50 value associated with the compound `C[C@H]1CCC([C@H](C)[C@H]2CC[C@H]3[C@@H]4CCC5=CC(=O)CC[C@]5(C)[C@H]4CC[C@]23C)=NC1` 16.8

Name the reported IC50 value associated with the compound `C[C@H]1CCC([C@H](C)[C@H]2CC[C@H]3[C@@H]4CC=C5[C@@H](O)[C@@H](O)CC[C@]5(C)[C@H]4CC[C@]23C)=NC1` 10.5

====

Test system: M109
Experiment: Cytotoxicity against mouse M109 cells
Assay type: functional, cell-based
endpointName: IC50 (µg/mL)
Supply the numeric figure in µg/mL, leaving out any unit text.

molecule	IC50 / µg/mL
C[C@@H]1[C@H](O)[C@@H](C)/C=C/C=C/C=C/C=C/C=C/C=C/C=C/[C@H](O[C@@H]2O[C@H](C)[C@@H](O)[C@H](N)[C@@H]2O)C[C@@H]2O[C@](O)(C[C@@H](O)C[C@@H](O)[C@H](O)CC[C@@H](O)C[C@@H](O)CC(=O)O[C@H]1C)C[C@H](O)[C@H]2C(=O)O [AMPHOTERICIN B]	7.5

Name the reported IC50 value associated with the molecule CC(=O)N1CCN(c2ccc(OCC3COC(Cn4ccnc4)(c4ccc(Cl)cc4Cl)O3)cc2)CC1 (configuration not stated) [KETOCONAZOLE] 17

====

Test system: Saccharomyces cerevisiae
Assay: Antifungal activity against Saccharomyces cerevisiae 1138
Format: functional
endpointName: IC12 (µg/mL)
Supply the numeric figure in µg/mL, leaving out any unit text.

Name the reported IC12 value associated with the compound `C[C@H]1CCC([C@@H](C)[C@H]2CC[C@H]3[C@@H]4CC=C5C[C@@H](O)CC[C@]5(C)[C@H]4CC[C@]23C)=NC1` 0.14

Name the reported IC12 value associated with the compound `C[C@H]1CCC([C@H](C)[C@H]2CC[C@H]3[C@@H]4CC=C5[C@@H](O)[C@@H](O)CC[C@]5(C)[C@H]4CC[C@]23C)=NC1` 10

Name the reported IC12 value associated with the compound `C[C@H]1CCC([C@@H](C)[C@H]2CC[C@H]3[C@@H]4CC=C5[C@@H](O)[C@@H](O)CC[C@]5(C)[C@H]4CC[C@]23C)=NC1` 12

Name the reported IC12 value associated with the compound `C[C@H]1CCC([C@H](C)[C@H]2CC[C@H]3[C@@H]4CC=C5C[C@@H](O)CC[C@]5(C)[C@H]4CC[C@]23C)=NC1` 0.88

Name the reported IC12 value associated with the compound `Cc1cnc([C@H](C)[C@H]2CC[C@H]3[C@@H]4CC=C5C[C@@H](O)CC[C@]5(C)[C@H]4CC[C@]23C)c(O)c1` 0.04

These measurements were taken from ChEMBL document CHEMBL1150957.
